Target Under Test: EBNA2_(381–389) peptide with an additional Gly-Tyr dipeptide at the C-terminus (NH2-[…]-CONH2) (Epstein-Barr virus, strain B95-8, C-terminal amide (CONH2))
Test Name: ITC; N fixed to 1

Binder: QTKKKQWCYNCEEEAMYHCCWNTSYCSIKCQQEHWHAEHKRTCRAKR (domain or fragment) [BS69_(MYND) R560A]
Kd: ~279 µM
